Overview of recorded percentage of EdU-negative for various sequences
system: MCF7; experiment: percentage of EdU-negative (G0-arrested) nuclei per well, 72 h; higher = more G0 arrest; conditions: protein concentration 0.225 µM; reference: sequence is the full UniProt precursor, the tested protein was the secreted form or ectodomain
Answer format: numeric, % implied, no suffix.

Worked examples, 2 sequences total:
MTVLAPAWSPTTYLLLLLLLSSGLSGTQDCSFQHSPISSDFAVKIRELSDYLLQDYPVTVASNLQDEELCGGLWRLVLAQRWMERLKTVAGSKMQGLLERVNTEIHFVTKCAFQPPPSCLRFVQTNISRLLQETSEQLVALKPWITRQNFSRCLELQCQPDSSTLPPPWSPRPLEATAPTAPQPPLLLLLLLPVGLLLLAAAWCLHWQRTRRRTPRPGEQVPPVPSPQDLLLVEH
25.7
MPRRSLHAAAVLLLVILKEQPSSPAPVNGSKWTYFGPDGENSWSKKYPSCGGLLQSPIDLHSDILQYDASLTPLEFQGYNLSANKQFLLTNNGHSVKLNLPSDMHIQGLQSRYSATQLHLHWGNPNDPHGSEHTVSGQHFAAELHIVHYNSDLYPDASTASNKSEGLAVLAVLIEMGSFNPSYDKIFSHLQHVKYKGQEAFVPGFNIEELLPERTAEYYRYRGSLTTPPCNPTVLWTVFRNPVQISQEQLLALETALYCTHMDDPSPREMINNFRQVQKFDERLVYTSFSQVQVCTAAGLSLGIILSLALAGILGICIVVVVSIWLFRRKSIKKGDNKGVIYKPATKMETEAHA
25.7

The record that follows has no percentage of EdU-negative shown yet.
Q) Which percentage of EdU-negative is reported for this sequence? MDPGLQQALNGMAPPGDTAMHVPAGSVASHLGTTSRSYFYLTTATLALCLVFTVATIMVLVVQRTDSIPNSPDNVPLKGGNCSEDLLCILKRAPFKKSWAYLQVAKHLNKTKLSWNKDGILHGVRYQDGNLVIQFPGLYFIICQLQFLVQCPNNSVDLKLELLINKHIKKQALVTVCESGMQTKHVYQNLSQFLLDYLQVNTTISVNVDTFQYIDTSTFPLENVLSIFLYSNSD
A) 27.5

----------
test system: MCF7; experiment: percentage of EdU-negative (G0-arrested) nuclei per well, 72 h; higher = more G0 arrest; settings: protein concentration 0.225 µM; reference: sequence is the full UniProt precursor, the tested protein was the secreted form or ectodomain;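 note: secreted proteins added to cultured cells, EdU pulse at the end, nuclei found by Hoechst imaging, EdU status from nuclear versus surrounding ring intensity ratio, PBS as neutral control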
Below, each entry is listed alongside its reported percentage of EdU-negative.
Give a bare numeral; the unit % is implied.

Past entries and their recorded results:
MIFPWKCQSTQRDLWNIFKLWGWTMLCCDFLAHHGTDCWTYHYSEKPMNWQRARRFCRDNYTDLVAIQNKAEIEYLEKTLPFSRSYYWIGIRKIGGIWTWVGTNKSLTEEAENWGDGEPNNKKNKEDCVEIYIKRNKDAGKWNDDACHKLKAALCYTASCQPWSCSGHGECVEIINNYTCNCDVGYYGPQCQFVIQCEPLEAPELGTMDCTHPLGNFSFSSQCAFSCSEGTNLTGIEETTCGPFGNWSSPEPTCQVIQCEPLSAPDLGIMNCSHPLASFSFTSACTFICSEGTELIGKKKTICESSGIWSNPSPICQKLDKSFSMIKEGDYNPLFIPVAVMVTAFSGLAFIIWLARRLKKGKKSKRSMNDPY
32.8
MAPARAGCCPLLLLLLGLWVAEVLVRAKPKDMTSSQWFKTQHVQPSPQACNSAMSIINKYTERCKDLNTFLHEPFSSVAITCQTPNIACKNSCKNCHQSHGPMSLTMGELTSGKYPNCRYKEKHLNTPYIVACDPPQQGDPGYPLVPVHLDKVV [Q8TDE3]
27.5
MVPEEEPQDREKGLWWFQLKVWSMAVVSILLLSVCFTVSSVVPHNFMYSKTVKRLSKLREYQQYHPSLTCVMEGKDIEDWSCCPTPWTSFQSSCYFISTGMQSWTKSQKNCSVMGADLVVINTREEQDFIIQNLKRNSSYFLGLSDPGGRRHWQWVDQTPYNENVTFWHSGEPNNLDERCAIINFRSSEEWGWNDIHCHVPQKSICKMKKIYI [Q8WTT0]
26.5
MKAWGTVVVTLATLMVVTVDAKIYERCELAARLERAGLNGYKGYGVGDWLCMAHYESGFDTAFVDHNPDGSSEYGIFQLNSAWWCDNGITPTKNLCHMDCHDLLNRHILDDIRCAKQIVSSQNGLSAWTSWRLHCSGHDLSEWLKGCDMHVKIDPKIHP [Q96QH8]
25
MSALWLLLGLLALMDLSESSNWGCYGNIQSLDTPGASCGIGRRHGLNYCGVRASERLAEIDMPYLLKYQPMMQTIGQKYCMDPAVIAGVLSRKSPGDKILVNMGDRTSMVQDPGSQAPTSWISESQVSQTTEVLTTRIKEIQRRFPTWTPDQYLRGGLCAYSGGAGYVRSSQDLSCDFCNDVLARAKYLKRHGF [Q8N1E2]
25.2
MNVLLGSVVIFATFVTLCNASCYFIPNEGVPGDSTRKCMDLKGNKHPINSEWQTDNCETCTCYETEISCCTLVSTPVGYDKDNCQRIFKKEDCKYIVVEKKDPKKTCSVSEWII
24.5
MVAALLGGGGEARGGTVPGAWLCLMALLQLLGSAPRGSGLAHGRRLICWQALLQCQGEPECSYAYNQYAEACAPVLAQHGGGDAPGAAAAAFPASAASFSSRWRCPSHCISALIQLNHTRRGPALEDCDCAQDENCKSTKRAIEPCLPRTSGGGAGGPGAGGVMGCTEARRRCDRDSRCNLALSRYLTYCGKVFNGLRCTDECRTVIEDMLAMPKAALLNDCVCDGLERPICESVKENMARLCFGAELGNGPGSSGSDGGLDDYYDEDYDDEQRTGGAGGEQPLDDDDGVPHPPRPGSGAAASGGRGDLPYGPGRRSSGGGGRLAPRGAWTPLASILLLLLGPLF
26.9
MSNTQAERSIIGMIDMFHKYTRRDDKIEKPSLLTMMKENFPNFLSACDKKGTNYLADVFEKKDKNEDKKIDFSEFLSLLGDIATDYHKQSHGAAPCSGGSQ
26.5
MAPISLSWLLRLATFCHLTVLLAGQHHGVTKCNITCSKMTSKIPVALLIHYQQNQASCGKRAIILETRQHRLFCADPKEQWVKDAMQHLDRQAAALTRNGGTFEKQIGEVKPRTTPAAGGMDESVVLEPEATGESSSLEPTPSSQEAQRALGTSPELPTGVTGSSGTRLPPTPKAQDGGPVGTELFRVPPVSTAATWQSSAPHQPGPSLWAEAKTSEAPSTQDPSTQASTASSPAPEENAPSEGQRVWGQGQSPRPENSLEREEMGPVPAHTDAFQDWGPGSMAHVSVVPVSSEGTPSREPVASGSWTPKAEEPIHATMDPQRLGVLITPVPDAQAATRRQAVGLLAFLGLLFCLGVAMFTYQSLQGCPRKMAGEMAEGLRYIPRSCGSNSYVLVPV
25.2
MPVPASWPHLPSPFLLMTLLLGRLTGVAGEDELQVIQPEKSVSVAAGESATLRCAMTSLIPVGPIMWFRGAGAGRELIYNQKEGHFPRVTTVSELTKRNNLDFSISISNITPADAGTYYCVKFRKGSPDDVEFKSGAGTELSVRAKPSAPVVSGPAVRATPEHTVSFTCESHGFSPRDITLKWFKNGNELSDFQTNVDPAGDSVSYSIHSTARVVLTRGDVHSQVICEIAHITLQGDPLRGTANLSEAIRVPPTLEVTQQPMRAENQANVTCQVSNFYPRGLQLTWLENGNVSRTETASTLIENKDGTYNWMSWLLVNTCAHRDDVVLTCQVEHDGQQAVSKSYALEISAHQKEHGSDITHEAALAPTAPLLVALLLGPKLLLVVGVSAIYICWKQKA
27

Please turn your attention to the following entry.
Q) Name the recorded percentage of EdU-negative for MLPPPRPAAALALPVLLLLLVVLTPPPTGARPSPGPDYLRRGWMRLLAEGEGCAPCRPEECAAPRGCLAGRVRDACGCCWECANLEGQLCDLDPSAHFYGHCGEQLECRLDTGGDLSRGEVPEPLCACRSQSPLCGSDGHTYSQICRLQEAARARPDANLTVAHPGPCESGPQIVSHPYDTWNVTGQDVIFGCEVFAYPMASIEWRKDGLDIQLPGDDPHISVQFRGGPQRFEVTGWLQIQAVRPSDEGTYRCLGRNALGQVEAPASLTVLTPDQLNSTGIPQLRSLNLVPEEEAESEENDDYY [Q96I82] .
A) 28.1
